# System: SK-UT-1 (Other Solid Carcinomas);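 also: after 72 h of two-drug dosing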
# Method Summary: Bliss excess, mean over the matrix (fraction); higher = more synergy
Label scheme, based on Bliss excess: low-valued = under -0.01, mid-valued = from -0.01 up to 0.03, high-valued = 0.03 and over

Could you place CS(=O)(=O)CCNCc1ccc(-c2ccc3ncnc(Nc4ccc(OCc5cccc(F)c5)c(Cl)c4)c3c2)o1 [Lapatinib] + Cn1cnc2c(F)c(Nc3ccc(Br)cc3Cl)c(C(=O)NOCCO)cc21 [Selumetinib] (first compound max 10 µM, 7x7, partner max 10 µM) in its proper category? Many thanks.
mid-valued

Hi there! Could you help me figure out the category for CC1(C)CCC(CN2CCN(c3ccc(C(=O)NS(=O)(=O)c4ccc(NCC5CCOCC5)c([N+](=O)[O-])c4)c(Oc4cnc5[nH]ccc5c4)c3)CC2)=C(c2ccc(Cl)cc2)C1 [Venetoclax] + Cn1cnc2c(F)c(Nc3ccc(Br)cc3Cl)c(C(=O)NOCCO)cc21 [Selumetinib] (first compound max 1 µM, 7x7, partner max 3 µM) please?
mid-valued

Categorize the following entry: COc1cccc(OCCCN)c1-c1cc(Nc2cnc(C#N)cn2)n[nH]1 [Prexasertib] + CCc1c2c(nc3ccc(O)cc13)-c1cc3c(c(=O)n1C2)COC(=O)[C@]3(O)CC [SN-38] (first compound max 1 µM, 7x7, partner max 0.3 µM)
low-valued

Field: class (Bliss excess) — entry: CC(=O)c1c(C)c2cnc(Nc3ccc(N4CCNCC4)cn3)nc2n(C2CCCC2)c1=O [Palbociclib] + Cn1cnc2c(F)c(Nc3ccc(Br)cc3Cl)c(C(=O)NOCCO)cc21 [Selumetinib] (first compound max 10 µM, 7x7, partner max 10 µM)
low-valued

For this compound, which bin applies? COc1cccc(OCCCN)c1-c1cc(Nc2cnc(C#N)cn2)n[nH]1 [Prexasertib] + C=CCn1c(=O)c2cnc(Nc3ccc(N4CCN(C)CC4)cc3)nc2n1-c1cccc(C(C)(C)O)n1 [AZD1775] (first compound max 1 µM, partner max 1 µM)
high-valued

The entry to classify is Cc1cc2ncnn2cc1Nc1ncc2c(n1)n(C1CCOCC1)c(=O)n2C [AZD7648] + COc1cc([C@@H]2c3cc4c(cc3[C@@H](O[C@@H]3O[C@@H]5CO[C@@H](C)O[C@H]5[C@H](O)[C@H]3O)[C@H]3COC(=O)[C@H]23)OCO4)cc(OC)c1O [Etoposide] (first compound max 10 µM, 7x7, partner max 10 µM) ; which class holds it?
high-valued

Lab note: sort Cc1c2c(nn1C)CSCc1cc(n(C)n1)CSc1cc(c3ccccc3c1)OCCCc1c(C(=O)O)n(C)c3c-2c(Cl)ccc13 [AZD5991] + C=CCn1c(=O)c2cnc(Nc3ccc(N4CCN(C)CC4)cc3)nc2n1-c1cccc(C(C)(C)O)n1 [AZD1775] (first compound max 1 µM, partner max 1 µM) into the matching Bliss excess band.
low-valued

In plain terms, what class is Cc1c2c(nn1C)CSCc1cc(n(C)n1)CSc1cc(c3ccccc3c1)OCCCc1c(C(=O)O)n(C)c3c-2c(Cl)ccc13 [AZD5991] + Cc1cc2ncnn2cc1Nc1ncc2c(n1)n(C1CCOCC1)c(=O)n2C [AZD7648] (first compound max 1 µM, 7x7, partner max 10 µM) ?
low-valued

Which Bliss excess band matches Cn1cnc2c(F)c(Nc3ccc(Br)cc3Cl)c(C(=O)NOCCO)cc21 [Selumetinib] + CCN(CCO)CCCOc1ccc2c(Nc3cc(CC(=O)Nc4cccc(F)c4)[nH]n3)ncnc2c1 [AZD2811] (first compound max 10 µM, 7x7, partner max 1 µM) ?
mid-valued

Which band does Cc1cc2ncnn2cc1Nc1ncc2c(n1)n(C1CCOCC1)c(=O)n2C [AZD7648] + CCN(CCO)CCCOc1ccc2c(Nc3cc(CC(=O)Nc4cccc(F)c4)[nH]n3)ncnc2c1 [AZD2811] (first compound max 10 µM, 7x7, partner max 1 µM) fall in?
high-valued

Lab note: sort C=CCn1c(=O)c2cnc(Nc3ccc(N4CCN(C)CC4)cc3)nc2n1-c1cccc(C(C)(C)O)n1 [AZD1775] + C[C@@H]1COCCN1C2=NC(=NC(=C2)C3(CC3)[S@](=N)(=O)C)C4=C5C=CNC5=NC=C4 [AZD6738] (first compound max 1 µM, partner max 10 µM) into the matching Bliss excess band.
high-valued

Lab note: sort COc1cc2c(cc1OCCCCCOc1cc3c(cc1OC)C(=O)N1C=C(C)C[C@H]1C=N3)N=C[C@@H]1CC(C)=CN1C2=O [SG3199] + O=C(c1cc(Cc2n[nH]c(=O)c3ccccc23)ccc1F)N1CCN(C(=O)C2CC2)CC1 [Olaparib] (first compound max 0.001 µM, 7x7, partner max 10 µM) into the matching Bliss excess band.
low-valued

Bin this entry: Cc1c2c(nn1C)CSCc1cc(n(C)n1)CSc1cc(c3ccccc3c1)OCCCc1c(C(=O)O)n(C)c3c-2c(Cl)ccc13 [AZD5991] + CS(=O)(=O)CCNCc1ccc(-c2ccc3ncnc(Nc4ccc(OCc5cccc(F)c5)c(Cl)c4)c3c2)o1 [Lapatinib] (first compound max 1 µM, 7x7, partner max 10 µM)
high-valued

Place this compound in its band: Cc1c2c(nn1C)CSCc1cc(n(C)n1)CSc1cc(c3ccccc3c1)OCCCc1c(C(=O)O)n(C)c3c-2c(Cl)ccc13 [AZD5991] + CCN(CCO)CCCOc1ccc2c(Nc3cc(CC(=O)Nc4cccc(F)c4)[nH]n3)ncnc2c1 [AZD2811] (first compound max 1 µM, 7x7, partner max 1 µM)
mid-valued
